The reported measurements were obtained from patent US10544143B2.

- EXPERIMENTAL_SYSTEM: human TLR8 (Homo sapiens (Human), UniProt Q9NR97)
- Sequence (Q9NR97 27-1041): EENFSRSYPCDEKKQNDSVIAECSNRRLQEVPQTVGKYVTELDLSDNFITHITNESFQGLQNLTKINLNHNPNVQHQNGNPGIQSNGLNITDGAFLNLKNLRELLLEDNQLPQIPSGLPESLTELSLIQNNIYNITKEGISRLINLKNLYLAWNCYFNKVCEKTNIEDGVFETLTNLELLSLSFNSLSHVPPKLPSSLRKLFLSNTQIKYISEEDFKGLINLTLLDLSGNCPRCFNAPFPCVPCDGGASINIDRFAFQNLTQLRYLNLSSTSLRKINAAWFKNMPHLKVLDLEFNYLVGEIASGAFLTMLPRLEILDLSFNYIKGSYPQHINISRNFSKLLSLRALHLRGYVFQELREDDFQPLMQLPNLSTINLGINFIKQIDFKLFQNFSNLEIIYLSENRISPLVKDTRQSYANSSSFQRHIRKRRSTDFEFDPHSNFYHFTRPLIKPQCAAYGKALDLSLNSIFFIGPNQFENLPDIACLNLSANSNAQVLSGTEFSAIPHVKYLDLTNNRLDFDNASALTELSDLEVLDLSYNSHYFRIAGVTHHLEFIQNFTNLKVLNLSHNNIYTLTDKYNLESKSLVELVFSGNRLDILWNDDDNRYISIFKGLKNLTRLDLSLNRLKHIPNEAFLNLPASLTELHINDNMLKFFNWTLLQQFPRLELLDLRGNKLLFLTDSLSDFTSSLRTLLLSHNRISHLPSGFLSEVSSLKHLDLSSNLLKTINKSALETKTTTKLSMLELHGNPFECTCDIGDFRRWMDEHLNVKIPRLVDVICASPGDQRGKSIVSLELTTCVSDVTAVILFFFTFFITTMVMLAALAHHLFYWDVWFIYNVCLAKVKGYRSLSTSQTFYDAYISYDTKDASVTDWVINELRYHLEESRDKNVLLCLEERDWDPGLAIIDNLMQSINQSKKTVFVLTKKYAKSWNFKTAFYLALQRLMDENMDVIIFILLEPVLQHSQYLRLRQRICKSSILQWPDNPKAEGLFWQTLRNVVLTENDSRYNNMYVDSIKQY
- EXPERIMENT_NOTES: TLR8 inhibition reporter assay (HEK-Blue SEAP);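 note: SEAP driven by IFN-β minimal promoter carrying NF-κB and AP-1 sites, compounds dosed 0.05 nM to 50 µM for 22 h, inhibition scaled between agonist-plus-DMSO and reference-inhibitor wells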
- CONDITION_NOTES: read-out: TLR8 IC50; HEK-Blue human TLR8 cells, R848 15.9 μM
PARAMETER_MEASURED: IC50 (nM)

Below are worked cases with known answers.
Cc1c(-c2[nH]c3ccc(C4CCC(N5CC(C(=O)N(C)C)C5)CC4)nc3c2C(C)C)cn2ncnc2c1C (stereo not shown) [Example 1050]
4.8
Cc1c(-c2[nH]c3ccc(N4CCN(C(=O)CN5CCCC5)C[C@H]4C)nc3c2C(C)C)cn2ncnc2c1C [Example 835]
4.1
Cc1c(-c2[nH]c3ccc(N4C[C@@H](C)N(C(=O)CN(C)C(C)(C)C)C[C@@H]4C)nc3c2C(C)C)cn2ncnc2c1C [Example 911]
1.5

(A) CCN(CC)CC(=O)N1CCN(c2ccc3[nH]c(-c4cn5ncnc5c(C)c4C)c(C(C)C)c3n2)CC1 [Example 871]
(B) Cc1c(-c2[nH]c3ccc(N4CCN(C(=O)CCN(C)C)[C@H](C)C4)nc3c2C(C)C)cn2ncnc2c1C [Example 850]
(C) Cc1c(-c2[nH]c3ccc(N4C[C@@H](C)N(C(=O)CCN5CCC(F)(F)C5)C[C@@H]4C)nc3c2C(C)C)cn2ncnc2c1C [Example 962]
(D) CC[C@H]1CNCCN1c1ccc2[nH]c(-c3cn4ncnc4c(C)c3C)c(C(C)C)c2n1 [Example 988]
Exercise: Arrange these 4 compounds in increasing order of IC50. Please list the labels in the order you were asked to rank them.
Solution: D, B, A, C

(I) Cc1c(-c2[nH]c3ccc(N4C[C@H](C)N(C(=O)CN5CC6(COC6)C5)C[C@H]4C)nc3c2C(C)C)cn2ncnc2c1C [Example 935]
(II) CNC1CCC(c2ccc3[nH]c(-c4cn(C)c5ncncc45)c(C(C)C)c3n2)CC1 (stereo not shown) [Example 1078]
Exercise: Looking only at measured IC50, which entry is lower, I or II ? Give the chosen item's label as your response.
Solution: I

(A) Cc1c(-c2[nH]c3ccc(N4CC(NC(C)C)C4)nc3c2C(C)C)cn2ncnc2c1C [Example 999]
(B) Cc1c(-c2[nH]c3ccc(N4CCN(C5CCS(=O)(=O)CC5)C[C@@H]4C)nc3c2C(C)C)cn2ncnc2c1C [Example 815]
(C) CCN(C)CCC(=O)N1C[C@H](C)N(c2ccc3[nH]c(-c4cn5ncnc5c(C)c4C)c(C(C)C)c3n2)C[C@H]1C [Example 906]
(D) CCCN1CC2(C1)CN(c1ccc3[nH]c(-c4cn5ncnc5c(C)c4C)c(C(C)C)c3n1)C2 [Example 1015]
Exercise: Form: Sort by [IC50] Order [ ascending ] Output spec: labels arranged per the requested ranking.
Solution: C, B, A, D
(C: 0.67 nM, B: 1.4 nM, A: 2.1 nM, D: 7.8 nM)

(1) Cc1c(-c2[nH]c3ccc(N4CCN(C(=O)CN(C)C(C)C)[C@H](C)C4)nc3c2C(C)C)cn2ncnc2c1C [Example 943]
(2) Cc1c(-c2[nH]c3ccc(C4CC5(C4)CN(CCCS(C)(=O)=O)C5)nc3c2C(C)C)cn2ncnc2c1C [Example 1030]
(3) Cc1c(-c2[nH]c3ccc(N4CCN(C(=O)CN(C)C(C)C)CC4)nc3c2C(C)C)cn2ncnc2c1C [Example 872]
(4) Cc1c(-c2[nH]c3ccc(N4C[C@@H](C)N(C(=O)CCN5CC6(CCOC6)C5)C[C@@H]4C)nc3c2C(C)C)cn2ncnc2c1C [Example 960]
(5) Cc1c(-c2[nH]c3ccc(N4CCN(CCCS(C)(=O)=O)C[C@@H]4C)nc3c2C(C)C)cn2ncnc2c1C [Example 805]
Exercise: Would you mind ranking these compounds by ascending IC50? Returns: the labels listed in the requested order.
Solution: 4, 5, 1, 2, 3
(4: 0.32 nM, 5: 0.57 nM, 1: 1.1 nM, 2: 1.9 nM, 3: 3.8 nM)

(A) Cc1c(-c2[nH]c3ccc(N4CCN(C(=O)CN(C)C)C[C@H]4C)nc3c2C(C)C)cn2ncnc2c1C [Example 808]
(B) Cc1c(-c2[nH]c3ccc(N4[C@H](C)CN(C(=O)CCN(C)C)C[C@H]4C)nc3c2C(C)C)cn2ncnc2c1C [Example 864]
Exercise: Which numeric IC50 is bigger, that of A or that of B ? Please indicate the selected item by its label.
Solution: B

(1) Cc1c(-c2[nH]c3ccc(N4CC5(C4)CN(C4CCOCC4)C5)nc3c2C(C)C)cn2ncnc2c1C [Example 1012]
(2) Cc1c(-c2[nH]c3ccc(N4CCN(C(=O)CNC(C)C)C[C@@H]4C)nc3c2C(C)C)cn2ncnc2c1C [Example 827]
Exercise: Could you determine which record has the numerically smaller IC50? Candidates: 1 and 2 Let me know the label of the one you choose.
Solution: 2

(P) Cc1c(-c2[nH]c3ccc(N4CCN(C(=O)CN(C)C)[C@@H](C)C4)nc3c2C(C)C)cn2ncnc2c1C [Example 887]
(Q) Cc1c(-c2[nH]c3ccc(N4CCN(C(=O)CN5CC(C)(C)C5)CC4)nc3c2C(C)C)cn2ncnc2c1C [Example 915]
(R) Cc1c(-c2[nH]c3ccc(N4C[C@H](C)N(C(=O)CN(C)C)C[C@H]4C)nc3c2C(C)C)cn2ncnc2c1C [Example 839]
(S) Cc1c(-c2[nH]c3ccc(N4C[C@@H](C)N[C@H](C)C4)nc3c2C(C)C)cn2ncnc2c1C [Example 884]
Exercise: Arrange the 4 compounds from largest to smallest IC50. Present the labels in the sequence the task asks for.
Solution: R, Q, P, S
(R: 3.2 nM, Q: 1 nM, P: 0.68 nM, S: 0.17 nM)
